- method_notes: chemical genetic growth profiling, strain panel (AID 1159580);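 note: tested at 20 µM; growth read once vehicle control cultures reached saturation at 30 °C; 1 = growth at the plate median or of vehicle wells; lower values mean less growth of the strain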
- applied_conditions: S. cerevisiae deletion strains, growth OD, locus YMR129W, active compounds read low
Screen size: about 5,500 compounds; about 2,000 (36%) were called active. Inconclusive results (about 18%) are left out. This is one part of the list.
measured_property: normalized growth
Answers are plain numbers.

The cases that follow already have their normalized growth on record.
compound	normalized growth
CC(=O)OCC(=O)[C@@]12OC(C)(C)O[C@@H]1CC1C3C[C@H](F)C4=CC(=O)C=C[C@]4(C)[C@@]3(F)[C@@H](O)C[C@@]12C (stereo not given in full)	1.02
CCOC(=O)CCCCCCCCCCCCC1C=CCC1 (stereo not given)	0.993
CC1(C)C2CC(=O)O[C@@]3(C)C4=CC(=O)O[C@@H](c5ccoc5)[C@]4(C)CCC3[C@@]2(C)C=C[C@H]1O (stereo not given in full)	0.992
O=C(O)CCCCC1SCC2NC(=O)NC21 (stereo not given)	0.997

// moving on: another record for normalized growth
Sample Nc1nc(N)c2nc(CNc3ccc(C(=O)NC(CCC(=O)O)C(=O)O)cc3)cnc2n1 (stereo not given) ; normalized growth observed: 1

----------
- method_notes: chemical genetic growth profiling, strain panel (AID 1159580);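 note: tested at 20 µM; growth read once vehicle control cultures reached saturation at 30 °C; 1 = growth at the plate median or of vehicle wells; lower values mean less growth of the strain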
- applied_conditions: S. cerevisiae deletion strains, growth OD, locus YOR231W, strain MKK1
In all, about 5,500 compounds went through this assay and about 2,000 (36%) were called active. Another 18% or so got no clear call; they are omitted. Rule as the data show it: active = normalized growth mostly below about 0.91 (no sharp cut-off); inconclusive = no clear call, values can overlap the other calls; inactive = mostly above about 0.92. This is one part of the list.
Entry note: the call must match one of active, inactive

The following molecules have reported results that may help.
molecule	group_label
CCOC(=O)c1c(N=Cc2cc(Br)c(Br)cc2O)sc2c1CCCC2	active
CC12CCC(CC1)C(C)(C)O2	inactive

Ask: What classification did C[C@@]12C(=O)OC(=O)[C@]1(C)C1CCC2O1 end up with in this test?
Result: active

Ask: What classification did O=C(O)CCCO end up with in this test?
Result: inactive

Ask: What classification did CCCN(CCC)C(=O)C(CCC(=O)O)NC(=O)c1ccccc1 (stereo unspecified) end up with in this test?
Result: inactive

Ask: What classification did NC(=O)c1cc[n+](CC2=C(C(=O)O)N3C(=O)C(NC(=O)C(c4ccccc4)S(=O)(=O)[O-])C3SC2)cc1 (stereo unspecified) end up with in this test?
Result: inactive

Ask: What classification did CCCCCc1ccc(S(=O)(=O)Nc2ccc3c(c2)C(=O)OC3)cc1 end up with in this test?
Result: inactive

Ask: What classification did O=c1cccc2n1C[C@H]1CNCC2C1 end up with in this test?
Result: inactive

Ask: What classification did CN(C)/C=C/C(=O)c1ccc(C#Cc2ccccc2)cc1 end up with in this test?
Result: inactive

----------
- method_notes: chemical genetic growth profiling, strain panel (AID 1159580);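 note: tested at 20 µM; growth read once vehicle control cultures reached saturation at 30 °C; 1 = growth at the plate median or of vehicle wells; lower values mean less growth of the strain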
- applied_conditions: S. cerevisiae deletion strains, growth OD, locus YMR205C, strain PFK2, active compounds read low
Screen size: about 5,500 compounds; about 2,000 (36%) were called active. Not shown: some 18% with an inconclusive outcome. Some of the results follow.
Doc: threshold 0.9 (exclusive). Items with normalized growth beneath it return 1; others return 0.

The following molecules have reported results that may help.
molecule	group_label
c1cc2c(cc1[C@H]1OC[C@H]3[C@@H]1CO[C@H]3c1ccc3c(c1)OCO3)OCO2	1
CCn1cc(C(=O)O)c(=O)c2cc3c(cc21)OCO3	0
S=c1[nH]c2ccccc2s1	0
CCCCC(CC)CN=C(N)NC(N)=NCCCCCCN=C(N)NC(N)=NCC(CC)CCCC (stereo not drawn)	1
CCN(CC)CCOC(=O)C(Cc1cccc2ccccc12)CC1CCCO1 (stereo not drawn)	0
OC/C=C/c1ccc(O)c(O)c1	0
NC(=O)c1ccc(N)nc1	0

Ask: Does the reported normalized growth of the following molecule sit strictly below 0.9? c1ccc2[nH]c(-c3cscn3)nc2c1
Result: 0
